# target.system: 5-HT2c (Homo sapiens)
# Construct: purchased Euroscreen/BioSignal Packard Inc
# Sequence (P28335 33-458): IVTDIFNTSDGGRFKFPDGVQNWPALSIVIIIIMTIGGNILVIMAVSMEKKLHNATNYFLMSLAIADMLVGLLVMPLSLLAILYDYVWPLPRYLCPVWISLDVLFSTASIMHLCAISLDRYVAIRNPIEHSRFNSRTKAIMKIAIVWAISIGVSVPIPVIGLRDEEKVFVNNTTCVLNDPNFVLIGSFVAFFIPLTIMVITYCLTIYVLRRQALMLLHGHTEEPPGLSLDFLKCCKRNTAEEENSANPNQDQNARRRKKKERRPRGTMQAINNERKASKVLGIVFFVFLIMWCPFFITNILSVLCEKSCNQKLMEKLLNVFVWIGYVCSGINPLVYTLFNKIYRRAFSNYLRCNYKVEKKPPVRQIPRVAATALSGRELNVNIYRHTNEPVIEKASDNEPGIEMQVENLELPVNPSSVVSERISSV
# measurement.protocol: Radioligand binding, 5-HT receptor family: 5-HT2c ([3H]Mesulergine)
# measurement.setup: CHO-K1 human recombinant receptor, [3H]Mesulergine 1 nM; read-out: Binding affinity, IC50 (nM), 5-HT2c
test.readout: IC50 (nM)
Lab book: enter the figure in nM, no units written.

// known answers, use as guide
# mol, test.result
measured = [
    ("COc1ccc(CN2C(=O)N(Cc3ccccc3)c3cc(Cl)cc(N4CCNCC4)c3S2(=O)=O)cc1", 961),
    ("CN1CCN(c2cc(Cl)cc3c2S(=O)(=O)N(Cc2ccc(Cl)cc2)C(=O)N3Cc2ccccc2)CC1", 1540),
    ("CCN1C(=O)N(Cc2ccccc2)c2cc(Cl)cc(N3CCN(C)CC3)c2S1(=O)=O", 1240),
]

Turning now to a further molecule:
Identify IC50 associated with the molecule CN1CCN(c2cc(Cl)cc3c2S(=O)(=O)N(Cc2ccccc2F)C(=O)N3Cc2ccccc2)CC1
578

* * *

# target.system: 5-HT1a (Homo sapiens, UniProt P08908)
# Construct: purchased Euroscreen/BioSignal Packard Inc
# Sequence (P08908 1-422): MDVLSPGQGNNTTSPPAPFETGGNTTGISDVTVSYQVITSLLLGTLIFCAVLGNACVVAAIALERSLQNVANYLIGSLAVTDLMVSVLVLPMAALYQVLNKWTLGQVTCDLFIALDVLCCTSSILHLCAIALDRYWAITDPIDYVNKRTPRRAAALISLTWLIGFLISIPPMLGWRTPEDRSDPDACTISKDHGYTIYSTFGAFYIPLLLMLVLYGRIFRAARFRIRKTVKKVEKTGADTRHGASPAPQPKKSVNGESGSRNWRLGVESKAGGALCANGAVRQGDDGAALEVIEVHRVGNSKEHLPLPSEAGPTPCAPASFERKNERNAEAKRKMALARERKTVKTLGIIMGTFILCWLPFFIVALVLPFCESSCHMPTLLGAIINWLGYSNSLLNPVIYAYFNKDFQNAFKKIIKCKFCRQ
# measurement.protocol: Radioligand binding, 5-HT receptor family: 5-HT1a ([3H]8-OH-DPAT)
# measurement.setup: CHO-K1 human recombinant receptor, [3H]8-OH-DPAT 0.5 nM; read-out: Binding affinity, IC50 (nM), 5-HT1a
Reported IC50 values for the following compounds.
Lab book: enter the figure in nM, no units written.

# mol, IC50 / nM
rows = [
    ("CN1CCN(c2cc(Cl)cc3c2S(=O)(=O)N(Cc2ccccc2Cl)C(=O)N3Cc2ccccc2)CC1", 3010),
]

Identify IC50 associated with the compound CCCN1C(=O)N(Cc2ccccc2)c2cc(Cl)cc(N3CCN(C)CC3)c2S1(=O)=O
2390

Identify IC50 associated with the compound C[C@@H](c1ccccc1)N1C(=O)N(Cc2ccccc2)c2cc(Cl)cc(N3CCNCC3)c2S1(=O)=O
1400

Identify IC50 associated with the compound C[C@@H](c1ccccc1)N1C(=O)N(Cc2ccccc2)c2cc(Cl)cc(N3CCN(C)CC3)c2S1(=O)=O
589

Identify IC50 associated with the compound CN1CCN(c2cc(Cl)cc3c2S(=O)(=O)N(Cc2ccccc2F)C(=O)N3Cc2ccccc2)CC1
2300

Identify IC50 associated with the compound O=C1N(Cc2ccccc2)c2cc(Cl)cc(N3CCNCC3)c2S(=O)(=O)N1Cc1cccc(O)c1
621

* * *

# target.system: hD3 receptor (Homo sapiens, UniProt P35462)
# Construct: purchased BioSignal Packard Inc., Montreal, Canada
# Sequence (P35462 whole entry): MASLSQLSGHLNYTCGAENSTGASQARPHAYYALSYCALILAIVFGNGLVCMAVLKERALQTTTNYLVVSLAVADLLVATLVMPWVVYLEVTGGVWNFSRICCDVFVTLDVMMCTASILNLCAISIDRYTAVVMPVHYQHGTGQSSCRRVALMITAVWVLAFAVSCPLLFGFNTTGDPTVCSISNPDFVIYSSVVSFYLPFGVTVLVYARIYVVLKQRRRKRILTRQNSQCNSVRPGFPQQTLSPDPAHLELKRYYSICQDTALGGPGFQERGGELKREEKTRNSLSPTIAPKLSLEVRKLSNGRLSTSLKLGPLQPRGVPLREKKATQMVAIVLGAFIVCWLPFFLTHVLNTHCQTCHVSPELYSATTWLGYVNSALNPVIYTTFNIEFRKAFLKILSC
# measurement.protocol: Dopamine receptor family binding: D3 ([3H]spiperone)
# measurement.setup: [3H]spiperone 1 nM; read-out: Binding affinity, IC50 (nM), D3
test.readout: IC50

// known answers, use as guide
# mol, IC50
rows = [
    ("Cc1cc(C)cc(CCCN2C(=O)N(Cc3ccccc3)c3cc(Cl)cc(N4CCNCC4)c3S2(=O)=O)c1", "488 nM"),
    ("C[C@@H](c1ccccc1)N1C(=O)N(Cc2ccccc2)c2cc(Cl)cc(N3CCNCC3)c2S1(=O)=O", "403 nM"),
    ("C[C@H](c1ccccc1)N1C(=O)N(Cc2ccccc2)c2cc(Cl)cc(N3CCNCC3)c2S1(=O)=O", "398 nM"),
    ("COc1cccc(CN2C(=O)N(Cc3ccccc3)c3cc(Cl)cc(N4CCN(C)CC4)c3S2(=O)=O)c1", "537 nM"),
    ("COc1ccc(CN2C(=O)N(Cc3ccccc3)c3cc(Cl)cc(N4CCNCC4)c3S2(=O)=O)cc1", "844 nM"),
    ("CN1CCN(c2cc(Cl)cc3c2S(=O)(=O)N(Cc2ccc(Cl)cc2)C(=O)N3Cc2ccccc2)CC1", "555 nM"),
]

Identify IC50 associated with the compound CN1CCN(c2cc(Cl)cc3c2S(=O)(=O)N(Cc2cccc(F)c2)C(=O)N3Cc2ccccc2)CC1
537 nM

Identify IC50 associated with the compound CCN1C(=O)N(Cc2ccccc2)c2cc(Cl)cc(N3CCN(C)CC3)c2S1(=O)=O
3170 nM

Identify IC50 associated with the compound Cc1cc(C)cc(CCCN2C(=O)N(Cc3ccccc3)c3cc(Cl)cc(N4CCN(C)CC4)c3S2(=O)=O)c1
336 nM

* * *

test.readout: melting point

// known answers, use as guide
# molecule, melting point
measured = [
    ("O=C1N(Cc2ccccc2)c2cc(Cl)cc(N3CCNCC3)c2S(=O)(=O)N1Cc1ccccc1[N+](=O)[O-] [Example 55]", "134 to 135 °C"),
    ("COC(=O)c1ccc(CN2C(=O)N(Cc3ccccc3)c3cc(Cl)cc(N4CCNCC4)c3S2(=O)=O)cc1 [Example 56]", "136 to 139 °C"),
    ("COc1ccccc1CN1C(=O)N(Cc2ccccc2)c2cc(Cl)cc(N3CCN(C)CC3)c2S1(=O)=O [Example 16]", "93 to 94 °C"),
    ("O=C1N(Cc2ccccc2)c2cc(Cl)cc(N3CCNCC3)c2S(=O)(=O)N1Cc1ccccc1Br [Example 48]", "144 to 145 °C"),
]

Turning now to a further molecule:
Identify melting point associated with the molecule CN1CCN(c2cc(Cl)cc3c2S(=O)(=O)N(CCc2ccccc2)C(=O)N3Cc2ccccc2)CC1 [Example 37]
151 to 152 °C

* * *

test.readout: melting point

# mol, test.readout, test.result
rows = [
    ("CN1CCN(c2cc(Cl)cc3c2S(=O)(=O)N(Cc2cccc(I)c2)C(=O)N3Cc2ccccc2)CC1", "melting point", "96 to 98 °C"),
    ("CN1CCN(c2cc(Cl)cc3c2S(=O)(=O)N(Cc2ccccc2)C(=O)N3Cc2ccccc2)CC1", "melting point", "100 to 101 °C"),
    ("O=C1N(Cc2ccccc2)c2cc(Cl)cc(N3CCNCC3)c2S(=O)(=O)N1Cc1ccccc1Cl", "melting point", "126 to 127 °C"),
    ("Cc1cc(C)cc(CCCN2C(=O)N(Cc3ccccc3)c3cc(Cl)cc(N4CCNCC4)c3S2(=O)=O)c1", "melting point", "226 to 228 °C"),
    ("C[C@H]1CN(c2cc(Cl)cc3c2S(=O)(=O)N(Cc2ccccc2Cl)C(=O)N3Cc2ccccc2)CCN1", "melting point", "142 to 143 °C"),
    ("COc1ccccc1N1C(=O)N(Cc2ccccc2)c2cc(Cl)cc(N3CCNCC3)c2S1(=O)=O", "melting point", "175 to 176 °C"),
    ("O=C1N(Cc2ccccc2)c2cc(Cl)cc(N3CCN4CCCC[C@@H]4C3)c2S(=O)(=O)N1Cc1ccccc1Cl", "melting point", "157 to 159 °C"),
    ("CN1CCN(c2cc(Cl)cc3c2S(=O)(=O)N(Cc2ccc(C#N)cc2)C(=O)N3Cc2ccccc2)CC1", "melting point", "134 to 135 °C"),
]

Identify melting point associated with the compound CCN1C(=O)N(Cc2ccccc2)c2cc(Cl)cc(N3CCNCC3)c2S1(=O)=O
158 to 161 °C

Identify melting point associated with the compound CN1CCN(c2cc(Cl)cc3c2S(=O)(=O)N(Cc2ccccc2[N+](=O)[O-])C(=O)N3Cc2ccccc2)CC1
84 to 86 °C

Identify melting point associated with the compound COc1cccc(CN2C(=O)N(Cc3ccccc3)c3cc(Cl)cc(N4CCN(C)CC4)c3S2(=O)=O)c1
85 to 86 °C

Identify melting point associated with the compound O=C1N(Cc2ccccc2)c2cc(Cl)cc(N3CCN4CCC[C@@H]4C3)c2S(=O)(=O)N1Cc1ccccc1Cl
114 to 116 °C

Identify melting point associated with the compound O=C1N(Cc2ccccc2)c2cc(Cl)cc(N3CCNCC3)c2S(=O)(=O)N1Cc1ccccc1F
120 to 121 °C

Identify melting point associated with the compound COc1ccc(N2C(=O)N(Cc3ccccc3)c3cc(Cl)cc(N4CCNCC4)c3S2(=O)=O)cc1
155 to 156 °C

Identify melting point associated with the compound CN1CCN(c2cc(Cl)cc3c2S(=O)(=O)N(Cc2ccc(F)cc2)C(=O)N3Cc2ccccc2)CC1
112 to 113 °C
